All figures here come from the supplement of paper PMC11208160.

Assay: recombinant UMI read abundance after kanamycin selection (control-corrected) (log10(CPM+1)); higher = more efficient recombination; extreme values may be limits of the assay; sequences stand for … in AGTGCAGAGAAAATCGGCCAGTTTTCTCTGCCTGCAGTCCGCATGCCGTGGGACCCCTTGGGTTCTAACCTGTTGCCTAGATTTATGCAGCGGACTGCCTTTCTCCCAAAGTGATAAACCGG…AGGTTGGTTTCACT; site = the 11-nt donor;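 further: IS621 bridge recombinase in Escherichia coli cells against a fixed T5 target plasmid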
Field: recombinant UMI read abundance (log10). Provide a value for each of the sequences that follow.
// response body must contain only the number

For AGCCTGGCATGGACCGGTTTTCCCGGTAATCCGTATTTGTT (site AGCCTAGCTAA) the sequence record lists recombinant UMI read abundance (log10) as 0

For TACCGTCCATGGACCGGTTTTCCCGGTAATCCGTATTTGAT (site CACCGTCCTAT) the sequence record lists recombinant UMI read abundance (log10) as 0.00852

For AATTAAGCATGGACCGGTTTTCCCGGTAATCCGTATTTGGA (site AATTATGCTTC) the sequence record lists recombinant UMI read abundance (log10) as 0.412

For CTCTTCACATGGACCGGTTTTCCCGGTAATCCGTATTTGCT (site CTCTGCACTAG) the sequence record lists recombinant UMI read abundance (log10) as 0

For TCAGTATCATGGACCGGTTTTCCCGGTAATCCGTATTTGCA (site GCAGTATCTTG) the sequence record lists recombinant UMI read abundance (log10) as 0.463

For GTTCTCTCATGGACCGGTTTTCCCGGTAATCCGTATTTGTA (site ATTCTCTCTTA) the sequence record lists recombinant UMI read abundance (log10) as 0.848

For CCTAAAGCATGGACCGGTTTTCCCGGTAATCCGTATTTGAT (site CCTACAGCTAT) the sequence record lists recombinant UMI read abundance (log10) as 0.0037

For CTAGACTCATGGACCGGTTTTCCCGGTAATCCGTATTTGAC (site CTAGTATCTGT) the sequence record lists recombinant UMI read abundance (log10) as 0

For CGGGGAACATGGACCGGTTTTCCCGGTAATCCGTATTTGTT (site CGAGGAACTAA) the sequence record lists recombinant UMI read abundance (log10) as 2.44

For AGCACCACATGGACCGGTTTTCCCGGTAATCCGTATTTGCA (site AGCACCACTTG) the sequence record lists recombinant UMI read abundance (log10) as 2.15

For TGAGCGTCATGGACCGGTTTTCCCGGTAATCCGTATTTGAC (site TGAGCGTCTGT) the sequence record lists recombinant UMI read abundance (log10) as 1.7

For TTCTATTCATGGACCGGTTTTCCCGGTAATCCGTATTTGCT (site TTCTATTCTAG) the sequence record lists recombinant UMI read abundance (log10) as 0

For CGTCTCTCATGGACCGGTTTTCCCGGTAATCCGTATTTGTA (site CCTCTCTCTTA) the sequence record lists recombinant UMI read abundance (log10) as 1.04

For GCGTTTACATGGACCGGTTTTCCCGGTAATCCGTATTTGCT (site TCGTTTACTAG) the sequence record lists recombinant UMI read abundance (log10) as 0.474

For TCGACGGCATGGACCGGTTTTCCCGGTAATCCGTATTTGAC (site TCGACGGCTGT) the sequence record lists recombinant UMI read abundance (log10) as 0.0562

For ACGAAGACATGGACCGGTTTTCCCGGTAATCCGTATTTGTA (site AGGAAGACTTG) the sequence record lists recombinant UMI read abundance (log10) as 0
